System: Myzus persicae
Method Notes: Myzus persicae test (Example C), sprayed cabbage leaves
Type: in vivo
Experimental Conditions: Myzus persicae, 144 h; 0.032 g/ha, alone, after 6 d; read-out: Kill in % after 6d
Below, each of the compounds is paired with its reported pest or weed control at 0.032 g/ha value.
Parameter Measured: pest or weed control at 0.032 g/ha (%)

- Compound: "O=[N+]([O-])/N=C1\\NCCN1Cc1ccc(Cl)nc1"
  Parameter Measured: "pest or weed control at 0.032 g/ha"
  Unit Abbreviation: "%"
  Val: 0
- Compound: "CC1(C)C(/C=C(\\Cl)C(F)(F)F)C1C(=O)OC(C#N)c1cccc(Oc2ccccc2)c1 [L-cyhalothrin (12a), lambda-cyhalothrin]"
  Parameter Measured: "pest or weed control at 0.032 g/ha"
  Unit Abbreviation: "%"
  Val: 0
- Compound: "CN/C(=N\\[N+](=O)[O-])NCc1cnc(Cl)s1"
  Parameter Measured: "pest or weed control at 0.032 g/ha"
  Unit Abbreviation: "%"
  Val: 0
- Compound: "N#C/N=C1\\SCCN1Cc1ccc(Cl)nc1"
  Parameter Measured: "pest or weed control at 0.032 g/ha"
  Unit Abbreviation: "%"
  Val: 0
- Compound: "CN1COCN(Cc2cnc(Cl)s2)/C1=N/[N+](=O)[O-]"
  Parameter Measured: "pest or weed control at 0.032 g/ha"
  Unit Abbreviation: "%"
  Val: 0

---

Below, each of the compounds is paired with its reported pest or weed control at 4 g/ha value.
System: Tetranychus urticae
Method Notes: Tetranychus urticae test (OP-resistant/spray treatment) (Example G), bean leaf disks
Assay type: in vivo
Experimental Conditions: Tetranychus urticae, foliar, 144 h; active compound alone, 4 g/ha, after 6 d; read-out: Kill in % after 6 d

- Compound: "Cc1cc(C(F)(C(F)(F)F)C(F)(F)F)ccc1NC(=O)c1cccc(Cl)c1C(=O)N[C@@H](C)CS(C)(=O)=O [compound (55)]"
  Unit Abbreviation: "%"
  pest or weed control at 4 g/ha: 0
- Compound: "COCCOC(=O)C(C#N)(C(=O)c1ccccc1C(F)(F)F)c1ccc(C(C)(C)C)cc1 (stereo not drawn) [cyflumetofen (72)]"
  Unit Abbreviation: "%"
  pest or weed control at 4 g/ha: 80
- Compound: "CCOCn1c(-c2ccc(Cl)cc2)c(C#N)c(Br)c1C(F)(F)F [chlorfenapyr (92), chlorfenapyr]"
  Unit Abbreviation: "%"
  pest or weed control at 4 g/ha: 70
- Compound: "CNC(=O)c1cc(Cl)cc(C)c1NC(=O)c1cc(Br)nn1-c1ncccc1Cl [Rynaxapyr (56), chlorantraniliprole]"
  Unit Abbreviation: "%"
  pest or weed control at 4 g/ha: 0
- Compound: "CC1(C)C(C=C(Cl)Cl)C1C(=O)OC(C#N)c1cccc(Oc2ccccc2)c1 (stereo not drawn) [cypermethrin (5), cypermethrin]"
  Unit Abbreviation: "%"
  pest or weed control at 4 g/ha: 0
- Compound: "CCOC(=O)OC1=C(c2cc(C)ccc2C)C(=O)N[C@]12CC[C@@H](OC)CC2 [spirotetramat (98), spirotetramat]"
  Unit Abbreviation: "%"
  pest or weed control at 4 g/ha: 50

// data source = patent US20100311677A1
